test system: T-47D breast; assay: NCI tumour cell line growth inhibition, 48 h
Record form. Attribute: GI50. Fill in for each entry.

                                   molecule  recordedmeasurement
0  Cc1ccc(S(=O)(=O)n2cc(-c3nnnn3-c3ccc(Cl)cc3)c(=O)c3ccccc32)cc1              57.9 µM
1  CN1CCCN(C(c2ccccc2)c2ccc(Br)cc2)CC1 (centres undefined)              3.18 µM
2  O=C1C(Cl)=C(Nc2cccc(O)c2)C(=O)N1c1cccc(Cl)c1Cl              16.8 µM

Moving on to the next molecule.
Problem: Fill in: GI50 of "COc1cc2c3c(c4c5ccccc5[nH]c4c2c(OC)c1OC)C(=O)N(CCN1CCCCC1)C3=O" is ___
Result: 6.09 µM
